- Test protocol: Toxic dose for mice (LD50)
- Type: in vivo
- Protocol conditions: mouse, in vivo, ip; mice, I.P.
Quantity name: LD50 (mg/kg)
Supply the numeric figure in mg/kg, leaving out any unit text.

LD50 recorded for this compound, COC(=O)C[C@](O)(CCCC(C)(C)O)C(=O)O[C@@H]1C(OC)=C[C@]23CCCN2CCc2cc4c(cc2[C@H]13)OCO4 , is 3.17

Source: patent US20070059385A1
